B1: Caulobacter ParB omega fusion; a variant is named by its letters at X, in order, B8GW30 (parent)
chain: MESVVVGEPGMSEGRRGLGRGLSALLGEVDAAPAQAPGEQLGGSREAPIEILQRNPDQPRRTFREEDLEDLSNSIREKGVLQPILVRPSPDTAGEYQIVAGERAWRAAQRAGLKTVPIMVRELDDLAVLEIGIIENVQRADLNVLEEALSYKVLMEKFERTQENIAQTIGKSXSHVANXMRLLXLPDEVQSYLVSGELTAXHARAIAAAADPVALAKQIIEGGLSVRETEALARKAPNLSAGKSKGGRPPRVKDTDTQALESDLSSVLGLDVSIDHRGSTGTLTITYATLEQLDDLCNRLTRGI

Variants of: B1
Assay: one-hybrid fitness for binding NBS DNA (the Noc-binding site; scaled: cognate 1, non-cognate 0); higher = stronger binding
Details: with NBS DNA site
The full ranking holds about 81,000 sequences; the median of “one-hybrid fitness for binding NBS DNA” is about -0.1, and the highest 2% start at about 0.36. The full list was thinned out, with the highest values kept by preference.

- change: "QQDT"
  one-hybrid fitness for binding NBS DNA: 0.428
- change: "MTVE"
  one-hybrid fitness for binding NBS DNA: "≤ 0.2"
- change: "MEVE"
  one-hybrid fitness for binding NBS DNA: "≤ 0.2"
- change: "FAHG"
  one-hybrid fitness for binding NBS DNA: "≤ 0.2"
- change: "DKKC"
  one-hybrid fitness for binding NBS DNA: "≤ 0.2"
- change: "THAP"
  one-hybrid fitness for binding NBS DNA: "≤ 0.2"
- change: "QQNP"
  one-hybrid fitness for binding NBS DNA: "≤ 0.2"
- change: "KQDT"
  one-hybrid fitness for binding NBS DNA: "≤ 0.2"
- change: "ASWL"
  one-hybrid fitness for binding NBS DNA: "≤ 0.2"
- change: "QQDF"
  one-hybrid fitness for binding NBS DNA: "≤ 0.2"
- change: "QQNT"
  one-hybrid fitness for binding NBS DNA: 0.596
